The following compounds are shown together with reported melting point values.

compound | experimental readout | result
CC(=O)N(CC(=O)O)C[C@H]1O[C@H](c2ccccc2Cl)c2cc(Cl)ccc2N(Cc2ccccc2)C1=O (relative stereo) | melting point | 143 to 145 °C
Cc1nnc2n1-c1sc(Cl)cc1C(c1ccccc1Cl)=NC2 | melting point | 205 to 206 °C
CC(C)(C)OC(=O)N[C@@H]1CCCC[C@H]1OCC(=O)O (relative stereo) | melting point | 205 to 207 °C

**Query** Recorded melting point of CCc1cn(C2CC(O)C(CO)O2)c(=O)nc1NC(=O)c1ccccc1 (stereo not given) , please.
**Result** 172 to 174 °C

**Query** Any idea what melting point was measured for O=C(O)Cn1c(-c2cc(Br)co2)nc2cccnc21 ?
**Result** 229 to 231 °C

// data source = a melting point compilation (Tetko et al.; mined from patent text by program, amines drawn as free bases though some values may be those of a salt)
